This section presents compounds with their documented fraction unbound values.
assay: The protein binding is expressed as percent bound as determined by VolSurf; format: ADME; conditions: read-out: Protein binding (converted)

SUBSTANCE SMILES: O=C(Nc1cccc(Br)c1)c1ccc([N+](=O)[O-])o1
fraction unbound: 0.311

SUBSTANCE SMILES: COc1ccc(N(C)C(=O)c2ccc([N+](=O)[O-])o2)cc1
fraction unbound: 0.395

SUBSTANCE SMILES: COc1ccc(CCNC(=O)c2ccc([N+](=O)[O-])o2)cc1
fraction unbound: 0.288

SUBSTANCE SMILES: O=C(Nc1cccc(O)c1)c1ccc([N+](=O)[O-])o1
fraction unbound: 0.391

SUBSTANCE SMILES: O=C(NCc1ccccc1Cl)c1ccc([N+](=O)[O-])o1
fraction unbound: 0.313

SUBSTANCE SMILES: O=C(NC1CCCCC1)c1ccc([N+](=O)[O-])o1
fraction unbound: 0.352

SUBSTANCE SMILES: O=C(c1ccc([N+](=O)[O-])o1)N1CCc2ccccc21
fraction unbound: 0.25

SUBSTANCE SMILES: COc1ccc(CCNC(=O)c2ccc([N+](=O)[O-])o2)cc1OC
fraction unbound: 0.303

SUBSTANCE SMILES: COc1cccc2sc(NC(=O)c3ccc([N+](=O)[O-])o3)nc12
fraction unbound: 0.257

Entry source: ChEMBL document CHEMBL1138787
